Values were extracted from paper PMC2756588.

Tgt: T1, Hof1, Q05080
T1 sequence (Q05080 590-669, looked up): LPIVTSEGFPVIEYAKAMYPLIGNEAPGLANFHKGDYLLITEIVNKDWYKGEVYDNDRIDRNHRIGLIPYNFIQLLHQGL
Method notes: SPOT array
Particulars: median of control spots 4086
Property measured: SPOT intensity

Below, each entry is followed by its recorded SPOT intensity result.
VPPVPLPFGIPPFPM
84
RVTRKRPREPKSTND
3
SSTPTTPERPKRKSG
0

P: YYNRQELALPKRMSS
Q: NPLPKEPRLPKRKVA
Task: For P and Q , which recorded SPOT intensity is lower? Answer format: the label of the selected item.
Output: P

P: NNNKMRPHLPPLSSG
Q: VYTRTAFQIPGDDKI
R: SNRRPVPRRPSQPLN
S: RPKRRAPPPVPKKPS
Task: Order these by SPOT intensity, descending, and give the full ranking. Response format: the labels, sorted as the prompt asks.
Output: P, R, S, Q
(P: 1460, R: 18, S: 2, Q: 0)
